Listed below: EC50 values for each entry.
# Species on record: Mus musculus
# Assay text: Effective concentration required for inhibition of interleukin-6 in mouse thioglycolate-elicited peritoneal exudate cell line using 79% radiolabeled Dexamethasone
# Type: functional
Property: EC50 (nM)

>>> result_value("C/C=C/[C@H]1OC2(CCCC3=Cc4c(cnn4-c4ccc(F)cc4)C[C@@]32C)O[C@@H]1/C=C/C")
37
>>> result_value("CC[C@H]1OC2(CCCC3=Cc4c(cnn4-c4ccc(F)cc4)C[C@@]32C)O[C@@H]1CC")
78

* * *

# Species: Mus musculus
# Assay text: Effective concentration required for interleukin-6 transrepression in peritoneal exudate cells of C57B1/6 mouse using 62% Dexamethasone
# Assay type: functional, cell-based
pEC50: −log10 of the molar value.
Property: pEC50

>>> result_value("CC[C@H]1OC2(CCC3=Cc4c(cnn4-c4ccc(F)cc4)C[C@@]32C)O[C@@H]1CC")
7.44

* * *

# Assay text: Clearance data in mouse at 2 mg/kg i.v. administration
# Type: ADME, organism-based
# Set-up: dose 2 mg/kg, route intravenous
# Test parameters: in vivo, iv
Property: clearance

>>> result_value("C=C[C@H]1OC2(CCC3=Cc4c(cnn4-c4ccc(F)cc4)C[C@@]32C)O[C@@H]1C=C")
"114 mL/min/kg"

* * *

# Assayed system: Glucocorticoid receptor (Homo sapiens, UniProt P04150)
# Sequence (P04150 whole entry, canonical isoform): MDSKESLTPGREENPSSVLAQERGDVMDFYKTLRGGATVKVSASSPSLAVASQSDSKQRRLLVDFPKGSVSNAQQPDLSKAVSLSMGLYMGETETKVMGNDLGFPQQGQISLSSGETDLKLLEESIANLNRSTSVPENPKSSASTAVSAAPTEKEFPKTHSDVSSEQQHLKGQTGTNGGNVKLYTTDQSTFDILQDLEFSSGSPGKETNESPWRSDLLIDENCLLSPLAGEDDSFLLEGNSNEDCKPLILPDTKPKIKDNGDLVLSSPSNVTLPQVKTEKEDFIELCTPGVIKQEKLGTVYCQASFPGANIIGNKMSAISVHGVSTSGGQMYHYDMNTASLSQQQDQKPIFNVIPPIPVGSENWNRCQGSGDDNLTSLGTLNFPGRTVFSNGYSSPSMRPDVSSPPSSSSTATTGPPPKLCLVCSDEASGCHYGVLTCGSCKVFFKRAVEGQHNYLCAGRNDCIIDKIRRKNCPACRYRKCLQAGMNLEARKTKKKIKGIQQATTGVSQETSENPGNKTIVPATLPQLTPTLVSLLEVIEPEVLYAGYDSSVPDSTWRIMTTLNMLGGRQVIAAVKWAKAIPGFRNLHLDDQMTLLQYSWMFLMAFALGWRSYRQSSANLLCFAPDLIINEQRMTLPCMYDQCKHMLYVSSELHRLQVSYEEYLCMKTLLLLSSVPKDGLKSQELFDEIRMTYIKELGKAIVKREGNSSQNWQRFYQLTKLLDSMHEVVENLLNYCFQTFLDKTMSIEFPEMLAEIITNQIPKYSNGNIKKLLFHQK
# Assay text: Inhibition of human glucocorticoid receptor alpha isoform
Please assign condition not met whenever IC50 is at or above 10 nM, and condition met whenever it is below.

>>> class_label("CC1(C)COC2(CCC3=Cc4c(cnn4-c4ccc(F)cc4)C[C@@]32C)OC1")
"condition not met"
>>> class_label("C=C[C@H]1OC2(CCC3=Cc4c(cnn4-c4ccc(F)cc4)C[C@@]32C)O[C@@H]1C=C")
"condition met"
>>> class_label("C[C@H]1OC2(CCC3=Cc4c(cnn4-c4ccc(F)cc4)C[C@@]32C)O[C@@H]1C")
"condition not met"
>>> class_label("C[C@]12Cc3cnn(-c4ccc(F)cc4)c3C=C1CC[C@@]21OC[C@@H](c2ccccc2)O1")
"condition not met"
>>> class_label("CCC[C@H]1OC2(CCCC3=Cc4c(cnn4-c4ccc(F)cc4)C[C@@]32C)O[C@@H]1CCC")
"condition met"
>>> class_label("C[C@]12Cc3cnn(-c4ccc(F)cc4)c3C=C1CC[C@]21OC[C@H](c2ccccc2)O1")
"condition not met"
>>> class_label("CC[C@H]1OC2(CCC3=Cc4c(cnn4-c4ccc(F)cc4)C[C@@]32C)O[C@@H]1CC")
"condition met"
>>> class_label("C/C=C/[C@H]1OC2(CCCC3=Cc4c(cnn4-c4ccc(F)cc4)C[C@@]32C)O[C@@H]1/C=C/C")
"condition met"

* * *

# Assay text: Effective concentration required for induction of glutamine synthetase in human skeletal muscle cells using 45% radiolabeled Dexamethasone
# Type: functional
pEC50: −log10 of the molar value.
Property: pEC50

>>> result_value("C/C=C/[C@H]1OC2(CCC3=Cc4c(cnn4-c4ccc(F)cc4)C[C@@]32C)O[C@@H]1/C=C/C")
7.77

* * *

Listed below: EC50 values for each entry.
# Species on record: Mus musculus
# Assay text: Effective concentration required for inhibition of interleukin-6 in mouse thioglycolate-elicited peritoneal exudate cell line using 69% radiolabeled Dexamethasone
# Assay type: functional
Property: EC50 (nM)

>>> result_value("COC[C@H]1OC2(CCC3=Cc4c(cnn4-c4ccc(F)cc4)C[C@@]32C)O[C@@H]1COC")
10
>>> result_value("C[C@H]1C[C@H](C)OC2(CCC3=Cc4c(cnn4-c4ccc(F)cc4)C[C@@]32C)O1 (some centres not stated)")
54
